test: physchem; conditions: water
Here the recorded solubility is given for each entry.

Which solubility reading was recorded for the molecule O=C1NS(=O)(=O)c2ccccc21 [saccharin] ?
< 50 mM

// next record O=C(O)C1(c2ccc(-c3ccc(Cl)c(Cl)c3)c(F)c2)CC1 [CSP-1103]
< 50 mM

// next record O=C(O)/C=C/c1ccc(O)c(O)c1 [caffeic acid]
< 50 mM

====

assay: Solubility assessment of CSP-1103 in organic solvents (qualitative); assay type: physicochemical; conditions: acetonitrile, organic solvent or mixture, thermodynamic from solid, qualitative solubility at 0.2 M; gentle heating 45° C. 1 minute if required
Endpoint name: solubility

Which solubility reading was recorded for the compound O=C(O)C1(c2ccc(-c3ccc(Cl)c(Cl)c3)c(F)c2)CC1 ?
< 200 mM
